This collection of values is drawn from patent US20240199611A1.

melting point values for the compounds below.
quantity: melting point (°C)

1) CCc1nc2ccc(Cl)cn2c1C(=O)NCc1ccc(N2CCN(S(C)(=O)=O)C=N2)cc1 [Compound 20] | 209.36
2) CCc1nc2ccc(OC)cn2c1C(=O)NCc1ccc(N2CCN(S(=O)(=O)C(F)(F)F)C(OC)=N2)cc1 [Compound 36] | 142.03
3) CCc1nc2ccc(Cl)cn2c1C(=O)NCc1ccc(N2CCNC=N2)cc1 [Compound 56] | 236.36
4) CCc1nc2ncc(Cl)cn2c1C(=O)NCc1ccc(N2CCN(S(=O)(=O)CC(C)C)C=N2)cc1 [Compound 23] | 207.21
5) CCc1nc2ccc(Cl)cn2c1C(=O)NCc1ccc(N2CCN(c3nccs3)C=N2)cc1 [Compound 76] | 232.4
6) CCc1nc2ncc(COC)cn2c1C(=O)NCc1ccc(N2CCN(S(=O)(=O)C(F)(F)F)C=N2)cc1 [Compound 33] | 225.92
7) CCc1nc2ccc(Cl)cn2c1C(=O)NCc1ccc(N2CCN(S(=O)(=O)C(F)(F)F)C(CCOC)=N2)cc1 [Compound 55] | 193.51
8) CCc1nc2ncc(F)cn2c1C(=O)NCc1ccc(N2CCN(S(=O)(=O)C(F)(F)F)C=N2)cc1 [Compound 10] | 171.42
9) CCc1nc2ccc(Cl)cn2c1C(=O)NCc1ccc(N2CCN(Cc3nc(C(F)(F)F)cs3)C=N2)cc1 [Compound 69] | 163.46
10) CCC1=NN(c2ccc(CNC(=O)c3c(CC)nc4ccc(Cl)cn34)cc2)CCN1S(=O)(=O)C(F)(F)F [Compound 2] | 178.31
11) CCc1nc2ncc(Cl)cn2c1C(=O)NCc1cc(F)c(N2CCN(S(=O)(=O)C(F)(F)F)C=N2)c(F)c1 [Compound 47] | 149.44
12) CCc1nc2ccc(COC)cn2c1C(=O)NCc1ccc(N2CCN(S(=O)(=O)C(F)(F)F)C=N2)cc1 [Compound 43] | 169.05
13) CCc1nc2cc(OC)c(Cl)cn2c1C(=O)NCc1ccc(N2CCN(S(=O)(=O)C(F)(F)F)C(OC)=N2)c(F)c1 [Compound 46] | 176.82
14) CCc1nc2ccc(Cl)cn2c1C(=O)NCc1ccc(N2CCN(C)C(C)=N2)cc1 [Compound 59] | 202.94
15) CCc1nc2ccc(N3CCCC3)cn2c1C(=O)NCc1ccc(N2CCN(S(=O)(=O)C(F)(F)F)C=N2)cc1 [Compound 65] | 228.15

* * *

quantity: melting point

1) COCc1nc2ccc(Cl)cn2c1C(=O)NCc1ccc(N2CCN(S(=O)(=O)C(F)(F)F)C=N2)cc1 | 167.12 °C
2) CCc1nc2ccc(OC)cn2c1C(=O)NCc1ccc(N2CCN(S(=O)(=O)C(F)(F)F)C(OC)=N2)c(F)c1 | 74.6 °C
3) CCc1nc2ccc(Cl)cn2c1C(=O)NCc1ccc(N2CCN(S(=O)(=O)C(F)(F)F)C=N2)cc1 | 183.46 °C
4) CCc1nc2ccc(Cl)cn2c1C(=O)NCc1ccc(N2CCN(S(=O)(=O)C(F)(F)F)C=N2)cc1OC | 175.12 °C

* * *

# Tested on: Mycobacterium tuberculosis strain EH4.0 expressing green-fluorescent protein (GFP)
# method_notes: microbe, parasite or virus in culture
# Type: cell-based
# measurement_context: Test 1 (and/or Test 2), read-out: pIC50 (converted)
quantity: IC50 (nM)

1. Cc1ccc2nc(C(F)F)c(C(=O)NCc3ccc(N4CCN(S(=O)(=O)C(F)(F)F)C(C(C)C)=N4)c(F)c3)n2c1 [Compound 240] | 0.603
2. CCc1nc2ncc(C)cn2c1C(=O)NCc1ccc(N2CCN(S(=O)(=O)C(F)(F)F)C(C)=N2)cc1 [Compound 250] | 1.58
3. CCc1nc2ccc(C)cn2c1C(=O)NCc1ccc(N2CCN(S(=O)(=O)C(F)(F)F)C(C(N)=O)=N2)cc1 [Compound 260] | 32.4
4. Cc1cnc2nc(C(F)F)c(C(=O)NCc3ccc(N4CCN(S(=O)(=O)C(F)(F)F)C(C(C)C)=N4)c(F)c3)n2c1 [Compound 249] | 1.86
5. CCc1nc2ccc(Cl)cn2c1C(=O)NCc1ccc(N2CCN(S(=O)(=O)C(F)(F)F)C(C3CC3)=N2)cc1 [Compound 230] | 6.61
6. CCc1nc2c(F)cc(Cl)cn2c1C(=O)NCc1ccc(N2CCN(S(=O)(=O)C(F)(F)F)C(C(C)C)=N2)cc1 [Compound 244] | 4.57
7. CCc1nc2nc3c(cn2c1C(=O)NCc1ccc(N2CCN(S(=O)(=O)C(F)(F)F)C=N2)c(F)c1)CCC3 [Compound 154] | 1.7
8. CCc1nc2c(F)cc(Cl)cn2c1C(=O)NCc1ccc(N2CCN(S(=O)(=O)C(F)(F)F)C(C(C)C)=N2)c(F)c1 [Compound 238] | 1.58
9. CCc1nc2ncc(C)cn2c1C(=O)NCc1ccc(N2CCN(S(=O)(=O)C(F)(F)F)C(C(C)C)=N2)c(F)c1 [Compound 248] | 0.224
10. CCc1nc2ccc(F)cn2c1C(=O)NCc1ccc(N2CCN(S(=O)(=O)C(F)(F)F)C(C3CC3)=N2)cc1 [Compound 227] | 11.5
11. O=C(NCc1ccc(N2CCN(S(=O)(=O)C(F)(F)F)C=N2)c(F)c1)c1c(C(F)F)nc2n1CCCC2 [Compound 147] | 3.8
12. CC(C)C1=NN(c2ccc(CNC(=O)c3c(C(F)(F)F)nc4ccccn34)cc2F)CCN1S(=O)(=O)C(F)(F)F [Compound 247] | 1.38
13. Cc1cn2c(C(=O)NCc3ccc(N4CCN(S(=O)(=O)C(F)(F)F)C=N4)c(F)c3)c(C)nc2s1 [Compound 153] | 1.78
14. CCC1=NN(c2ccc(CNC(=O)c3c(C(F)(F)F)nc4ccccn34)cc2F)CCN1S(=O)(=O)C(F)(F)F [Compound 233] | 1.07
